Molecular target: T1, human CDH6 on cells (human, UniProt P55285 54-790)
T1 sequence: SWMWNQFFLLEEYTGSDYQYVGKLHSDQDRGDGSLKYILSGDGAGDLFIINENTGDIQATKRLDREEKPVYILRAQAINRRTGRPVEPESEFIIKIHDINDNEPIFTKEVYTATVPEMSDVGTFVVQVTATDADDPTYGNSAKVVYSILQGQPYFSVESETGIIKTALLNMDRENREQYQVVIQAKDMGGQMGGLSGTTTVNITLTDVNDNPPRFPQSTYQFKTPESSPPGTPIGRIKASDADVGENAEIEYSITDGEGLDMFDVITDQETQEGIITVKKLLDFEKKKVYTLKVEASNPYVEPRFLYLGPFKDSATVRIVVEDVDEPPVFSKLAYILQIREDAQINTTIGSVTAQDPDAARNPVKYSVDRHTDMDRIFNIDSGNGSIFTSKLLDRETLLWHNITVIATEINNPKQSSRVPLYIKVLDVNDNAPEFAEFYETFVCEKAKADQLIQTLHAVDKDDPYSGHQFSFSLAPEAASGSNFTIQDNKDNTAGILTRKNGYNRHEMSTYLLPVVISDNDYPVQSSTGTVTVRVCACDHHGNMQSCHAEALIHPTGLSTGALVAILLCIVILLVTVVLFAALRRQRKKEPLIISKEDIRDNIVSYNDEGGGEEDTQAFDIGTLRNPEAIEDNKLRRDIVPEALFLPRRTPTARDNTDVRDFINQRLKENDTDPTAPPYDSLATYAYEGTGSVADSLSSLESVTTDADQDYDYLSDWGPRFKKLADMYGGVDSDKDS
Assay: cell-based or functional assay
Please note: 1 (yes) applies when percent inhibition at 1.22 nM ADC, KNS42 cells is -10% or greater, and 0 (no) applies otherwise.

IN: Hi, just wondering whether NOV0685-SMCC-DM1 (antibody, human IgG1, lambda, V domains shown, SMCC-DM1 on primary amines, sites not stated) VH: QVQLQQSGPGLVKPSQTLSLTCAISGDSVSGNSAAWNWIRQSPSRGLEWLGIIYYRSKWYNDYAVSVKSRITINPDTSKNQFSLQLNSVTPEDTAVYYCARSSYSGGFDYWGQGTLVTVSS VL: DIVLTQPPSVSGAPGQRVTISCSGSSSNIGSYYVSWYQQLPGTAPKLLIYYNTKRPSGVPDRFSGSKSGTSASLAITGLQAEDEADYYCQSWDKLGKGYVFGGGTKLTVLG shows percent inhibition at 1.22 nM ADC, KNS42 cells of -10% or higher.
OUT: 0 (no)

IN: Hi, just wondering whether NOV0720-SMCC-DM1 (antibody, human IgG1, lambda, V domains shown, SMCC-DM1 on primary amines, sites not stated) VH: QVQLQQSGPGLVKPSQTLSLTCAISGDSVSSNSAGWNWIRQSPSRGLEWLGRIYYRSKWYNDYAVSVKSRITINPDTSKNQFSLQLNSVTPEDTAVYYCAREKYTVSFYDFFDYWGQGTLVTVSS VL: DIELTQPPSVSVSPGQTASITCSGDNIGSMTAHWYQQKPGQAPVLVIYDKNERPSGIPERFSGSNSGNTATLTISGTQAEDEADYYCQSWDDSYNSVVFGGGTKLTVLG shows percent inhibition at 1.22 nM ADC, KNS42 cells of -10% or higher.
OUT: 1 (yes)

IN: Hi, just wondering whether NOV0689-SMCC-DM1 (antibody, human IgG1, lambda, V domains shown, SMCC-DM1 on primary amines, sites not stated) VH: QVQLLESGGGLVQPGGSLRLSCAASGFTFSSFAMNWVRQAPGKGLEWVSVISSSGSNTNYADSVKGRFTISRDNSKNTLYLQMNSLRAEDTAVYYCARPSYFQAMDYWGQGTLVTVSS VL: DIVLTQPPSVSGAPGQRVTISCSGSSSNIGSNFVSWYQQLPGTAPKLLIYDNSNRPSGVPDRFSGSKSGTSASLAITGLQAEDEADYYCSSYDSFDHSWVFGGGTKLTVLG shows percent inhibition at 1.22 nM ADC, KNS42 cells of -10% or higher.
OUT: 1 (yes)

IN: Hi, just wondering whether NOV0713-SMCC-DM1 (antibody, human IgG1, lambda, V domains shown, SMCC-DM1 on primary amines, sites not stated) VH: QVQLQQSGPGLVKPSQTLSLTCAISGDSVSSNSAAWNWIRQSPSRGLEWLGRIYYRSKWYNDYAVSVKSRITINPDTSKNQFSLQLNSVTPEDTAVYYCARGLVGRYGQPYHFDVWGQGTLVTVSS VL: DIELTQPPSVSVSPGQTASITCSGDNLRSYYVHWYQQKPGQAPVLVIYGNNKRPSGIPERFSGSNSGNTATLTISGTQAEDEADYYCGVYTLSSVVFGGGTKLTVLG shows percent inhibition at 1.22 nM ADC, KNS42 cells of -10% or higher.
OUT: 0 (no)

IN: Hi, just wondering whether NOV0670-SMCC-DM1 (antibody, human IgG1, lambda, V domains shown, SMCC-DM1 on primary amines, sites not stated) VH: QVQLVQSGAEVKKPGSSVKVSCKASGGTFSSYAISWVRQAPGQGLEWMGGIIPIFGTANYAQKFQGRVTITADESTSTAYMELSSLRSEDTAVYYCARKFPGRGPFAYWGQGTLVTVSS VL: DIVLTQPPSVSGAPGQRVTISCSGSSSNIGSQYVYWYQQLPGTAPKLLIYYNSERPSGMPDRFSGSKSGTSASLAITGLQAEDEADYYCQTWDASSQSFVFGGGTKLTVLG shows percent inhibition at 1.22 nM ADC, KNS42 cells of -10% or higher.
OUT: 0 (no)

Source listed as patent US20170224836A1.
